# systemName: UniProt:P44405
# Sequence (P44405 whole entry): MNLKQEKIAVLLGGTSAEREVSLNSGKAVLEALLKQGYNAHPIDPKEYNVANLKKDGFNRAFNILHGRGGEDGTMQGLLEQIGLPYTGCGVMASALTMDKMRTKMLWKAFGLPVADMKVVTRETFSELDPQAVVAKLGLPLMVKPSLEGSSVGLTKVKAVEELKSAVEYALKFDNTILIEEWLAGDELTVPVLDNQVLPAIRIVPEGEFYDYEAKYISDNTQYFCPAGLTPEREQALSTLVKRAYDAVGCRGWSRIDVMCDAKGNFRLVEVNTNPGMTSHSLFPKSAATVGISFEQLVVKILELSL
# testName: D-Ala-D-Ala ligase Ki determination (PK/LDH coupled assay), H. influenzae ligase
# Type: biochemical
# details: Table 5; Ki/ATP, avg; read-out: H. Influenzae ligase Ki/ATP (uM) avg
# Text: Inhibition of D-Ala-D-Ala ligase can be assayed for using the pyruvate kinase/lactate dehydrogenase (PK/LDH) assay described in Example 2, and as described in the literature (e.g., in Sarthy et al., Anal. Biochem., 254:288-290, 1997). […] The protein sequence for the enzyme D-ala-D-ala ligase has been determined in a variety of different bacterial species using standard techniques in biochemistry (see Table 5). […]
observationType: Ki (µM)
A number alone suffices; assume µM.

Some molecules with recorded Ki:
| molecule | observed |
| --- | --- |
| CCCN(c1ncc2c(N)nc(N)nc2n1)C(C)c1cccc2ccccc12 (stereo not shown) | 2.7 |
| CC(c1cccc2ccccc12)N(CCCN)c1ncc2c(N)nc(N)nc2n1 (stereo not shown) | 5.5 |
| CCOc1ccc2ccccc2c1CN(CCCCN)c1ncc2c(N)nc(N)nc2n1 | 0.52 |

(Q) Fill in the blank: the reported Ki of CC(c1cccc2ccccc12)N(CCCCN)c1ncc2c(N)nc(N)nc2n1 (stereo not shown) [drawing 55] is ____.
(A) 4.2

---

Parameter: Ki. Scope: all listed entries.
# systemName: Strep ligase (D-Ala-D-Ala ligase) (Streptococcus pneumoniae serotype 4)
# Sequence (P0CB57 1-347): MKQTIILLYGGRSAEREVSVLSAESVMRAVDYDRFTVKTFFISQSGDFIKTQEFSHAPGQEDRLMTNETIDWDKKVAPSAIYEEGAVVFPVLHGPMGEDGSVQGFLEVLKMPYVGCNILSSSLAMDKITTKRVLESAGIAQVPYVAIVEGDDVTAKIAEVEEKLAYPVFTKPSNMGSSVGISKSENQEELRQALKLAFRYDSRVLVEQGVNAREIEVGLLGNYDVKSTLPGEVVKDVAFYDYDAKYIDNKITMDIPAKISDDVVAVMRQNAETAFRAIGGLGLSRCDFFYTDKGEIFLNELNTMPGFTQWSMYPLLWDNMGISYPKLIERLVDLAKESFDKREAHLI
# testName: D-Ala-D-Ala ligase Ki determination (PK/LDH coupled assay), Strep ligase
# Assay type: biochemical
# details: Table 4; Ki/ATP, avg; read-out: Strep ligase Ki/ATP (uM) avg
A number alone suffices; assume µM.

Some compounds with recorded Ki:
| compound | endpointUnit | Ki |
| --- | --- | --- |
| CCOc1ccc2ccccc2c1CN(CCC(=O)O)c1ncc2c(N)nc(N)nc2n1 | µM | 2.1 |
| C[C@@H](c1cccc2ccccc12)N(CC(O)C(=O)O)c1ncc2c(N)nc(N)nc2n1 (stereo partly drawn) | µM | 4.3 |

// moving on: another record for Ki
(Q) Fill in the blank: the reported Ki of "C[C@@H](c1cccc2ccccc12)N(CCC(=O)O)c1ncc2c(N)nc(N)nc2n1" is ____.
(A) 14.6

---

# systemName: E. coli ligase (D-Ala-D-Ala ligase) (Escherichia coli)
# testName: D-Ala-D-Ala ligase Ki determination (PK/LDH coupled assay), E. coli ligase
# Format: biochemical
# details: E. coli ligase Ki/ATP (uM) avg, Table 5; Ki/ATP, avg
# From the text: Inhibition of D-Ala-D-Ala ligase can be assayed for using the pyruvate kinase/lactate dehydrogenase (PK/LDH) assay described in Example 2, and as described in the literature (e.g., in Sarthy et al., Anal. Biochem., 254:288-290, 1997). […] The protein sequence for the enzyme D-ala-D-ala ligase has been determined in a variety of different bacterial species using standard techniques in biochemistry (see Table 5). […]
observationType: Ki (µM)
A number alone suffices; assume µM.

| compound | observationType | endpointUnit | observed |
| --- | --- | --- | --- |
| CC(c1cccc2ccccc12)N(CCCN)c1ncc2c(N)nc(N)nc2n1 (stereo not shown) | Ki | µM | 0.457 |
| CCCN(c1ncc2c(N)nc(N)nc2n1)C(C)c1cccc2ccccc12 (stereo not shown) | Ki | µM | 2 |
| CC(c1cccc2ccccc12)N(CCCCN)c1ncc2c(N)nc(N)nc2n1 (stereo not shown) [drawing 55] | Ki | µM | 0.135 |

(Q) Fill in the blank: the reported Ki of "CCOc1ccc2ccccc2c1CN(CCCCN)c1ncc2c(N)nc(N)nc2n1" is ____.
(A) 0.105
